experiment: Inhibition of Saccharomyces cerevisiae alpha-glucosidase assessed as reduction in PNP formation using alpha-PNPG as substrate incubated for 30 mins by microplate reader assay
pIC50: −log10 of the molar value.
Reported pIC50 values for the following compounds.
readout_name: pIC50

INSERT INTO results (compound, readout_name, quantitative_result) VALUES
  ('CC1=C2[C@@H](O)[C@@]3(C)CC(=O)[C@@]4(C)[C@]2(CC1=O)C[C@]43C', 'pIC50', 3.80),
  ('C[C@H]1O[C@H](O[C@H]2[C@H](O)[C@@H](O)[C@@H](O[C@H]3[C@H](O)[C@@H](O)C(O)O[C@@H]3CO)O[C@@H]2CO)[C@H](O)[C@@H](O)[C@@H]1N[C@H]1C=C(CO)[C@@H](O)[C@H](O)[C@H]1O (some centres not stated)', 'pIC50', 3.24),
  ('O=C(CCCCc1ccccc1)c1ccc(O)cc1', 'pIC50', 3.90),
  ('CC1=C2C[C@H](C(C)C)C[C@@H]3O[C@@]2(CC1=O)[C@@]3(C)O', 'pIC50', 3.99),
  ('CO[C@@H](CCc1ccccc1)CC(=O)c1ccccc1', 'pIC50', 3.84),
  ('O=C(/C=C/CCc1ccccc1)c1ccc(O)cc1', 'pIC50', 4.36),
  ('O=C(CC[C@H](O)C(=O)c1ccc(O)cc1)c1ccccc1', 'pIC50', 3.86);
